These data points were gathered from the supplement of paper PMC7726561.

target.entity: HLA-A*02:01;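 also: lysates heated 10 min at 37–73 °C, complexes pulled down with pan-HLA I antibody, peptide signal by DIA-MS relative to 37 °C, Tm where half the complex is unfolded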
test.name: thermal melting temperature (Tm) of peptide-HLA complex; higher = more thermostable pHLA complex
study.conditions: C1R-A*02:01
Over roughly 1,100 sequences, “thermal melting temperature (Tm) of peptide-HLA complex” has its median near 58; the lowest 2% begin near 42. The entries come from a sample that favours the lowest values as a whole.
Kindly supply the reported thermal melting temperature values for the records listed here.
Give bare numbers, in °C.

Sample records with thermal melting temperature:
# biopolymer.sequence, unit.of.measurement, thermal melting temperature
rows = [
    ("SMSADVPLV", "°C", 61.3),
    ("YLPEDFIRV", "°C", 61.4),
    ("VLIDYQRNV", "°C", 60.1),
]

For every listed record, write down its thermal melting temperature.
1. FLLEQEKTQAL
2. ALLKIEGVYA
3. MLDDRAYLV

Completion:
1: 59; 2: 59.4; 3: 61.5

For every listed record, write down its thermal melting temperature.
1. QMISRIEYV
2. SLFPGKLEV
3. QLTNVILHL

Completion:
59.7
60.4
58.7
